Target: T1, human IL-2Rγ (common cytokine receptor γ-chain) (human, UniProt P31785 23-262, limits assumed)
T1 construct: Recombinant protein coated on the plate or immobilised on a CM5 chip; also called hu IL-2R; CD132
T1 sequence: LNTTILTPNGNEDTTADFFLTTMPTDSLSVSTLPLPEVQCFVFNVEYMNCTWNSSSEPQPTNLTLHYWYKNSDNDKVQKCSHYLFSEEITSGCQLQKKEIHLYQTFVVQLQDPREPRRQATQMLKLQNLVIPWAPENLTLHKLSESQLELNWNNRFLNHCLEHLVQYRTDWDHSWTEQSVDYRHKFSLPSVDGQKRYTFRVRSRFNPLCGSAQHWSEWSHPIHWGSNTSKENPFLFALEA
Assay: PE binding ELISA, periplasmic extract on coated protein
resultType: OD (PE binding ELISA) (OD450 nm)
Reply numerically in OD450 nm, unit not repeated.

See these solved cases before continuing.
[[record]]
binder = "FJ1427_P035MP04H11 (VHH, VHH in periplasmic extract; also called clone nr) VHH: QVQLVESGGGWVQVGESPRLSCAPSGRTFVSGIMGWFRQTPGKEREFVARIILNNNSTRYTDSVKGRFTISRDSAKNTMYLQMNTLRPEDTAVYYCAARDRYGSGNSLSPSAYDYWGQGTQVTVSS"
resulttype = "OD (PE binding ELISA)"
reportedresult = 1.77

[[record]]
binder = "FJ1427_P035MP04E04 (VHH, VHH in periplasmic extract; also called clone nr) VHH: EVQLVESGGGWVQVGESLRLSCVPSGRTFVSGIMGWFRQAPGKEREFVARIILNSNSTRYTDSVKGRFTISRDSAKNTMYLQMNSLRPEDTAVYYCAARDRYGSGNSLSPSAYDYWGQGTQVTVSS"
resulttype = "OD (PE binding ELISA)"
reportedresult = 1.73

[[record]]
binder = "FJ1427_P035MP04F09 (VHH, VHH in periplasmic extract; also called clone nr) VHH: QVQLVESGGGWVQVGESLRLSCAPSGRTFVRGIMGWFRQAPGKEREFVARIILNNNSTRYTDSVKGRFTISRDSAKNTMWLQMDSLRPEDTAVYYCAARDRYGSGNSLSPSAYDYWGQGTQVTVSS"
resulttype = "OD (PE binding ELISA)"
reportedresult = 1.77

[[record]]
binder = "32-MP04A08 (VHH, VHH in periplasmic extract; also called FJ1427_P035MP04A08; clone nr) VHH: QVQLVESGGGLVQAGGSLRLSCAASGRTFGSTAVGWFRQVPGKEREFVSAINRSGSATTYADSVKGRFTISRDNAKNTVYLQMNSLTPEDTGVYYCAADSLPYGRPYYFQRSAGEYDYWGQGTQVTVSS"
resulttype = "OD (PE binding ELISA)"
reportedresult = 0.407

[[record]]
binder = "FJ1427_P035MP04B09 (VHH, VHH in periplasmic extract; also called clone nr) VHH: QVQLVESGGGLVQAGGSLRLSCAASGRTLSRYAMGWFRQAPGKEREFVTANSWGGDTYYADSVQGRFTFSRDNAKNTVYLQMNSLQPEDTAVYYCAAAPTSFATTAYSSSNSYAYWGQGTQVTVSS"
resulttype = "OD (PE binding ELISA)"
reportedresult = 1.54


Hello, please tell me recorded OD (PE binding ELISA) for this one: FJ1427_P035MP04D12 (VHH, VHH in periplasmic extract; also called clone nr; 380) VHH: QVQLVESGGGWVQVGKSLRLSCAPSGRTFVSGIMGWFRQAPGKEREFVARIILNNNSTRYIDSVKGRFTISRDSAKNTMYLQMDSLRPEDTAVYYCAARDRYGSGNSLSPSAYDYWGQGTQVTVSS
1.05

Hello, please tell me recorded OD (PE binding ELISA) for this one: 30-MP04C03 (VHH, VHH in periplasmic extract; also called FJ1427_P035MP04C03; clone nr) VHH: EVQLVESGGGWVQDGGSLRLSCALSGRTFVRGIMGWFRQAPGKEREFVARIIWHINSTRYADSVKGRFTISRDSAKNTMYLQMDSLRPEDTAVYYCAARDRYGSGNSLSPSAYDYWGQGTQVTVSS
1.49

Hello, please tell me recorded OD (PE binding ELISA) for this one: FJ1427_P035MP04F11 (VHH, VHH in periplasmic extract; also called clone nr) VHH: QVQLVESGGGWVQVGESLRLSCAPSGRTFVSGIMGWFRQTPGKEREFVARIILNNNSTRYTDSVKGRFTISRDSAKNTLYLQMNTLRPEDTAVYYCAARDRYGSGNSLSPSAYDYWGQGTQVTVSS
2.01
